- Subject of test: pooled human IgG
# Enzyme Activity Endpoint Assay: IgG listing for each entry below
# number only, unit ng/µL dropped from output

Protein	Quantitative result
PRT-44 (protein) MANQEIRYSEVTPYHVTSVWTKGVTPPANFTQGEDVFHAPYVANQGWYDITKTFNGGDDLLCGAATAGNMLHWWFDQNKDQIDRYLEEHPEKQKINFNGEQMFDVKEAIDTKNSQTDSKLFEYFKEKAFPYLSTKHLGVFPDLVLDMFINGYRLSLTNHGPTPVKEGSKDPRGGFFDDVFTRGDQSKLLTSRHDFKEKNLKEISDLIKKELTEGKALGLSHTYANVRINHVINLWGADFDSNGNLKAIYVTDSDSNASIGMKKYFVGVNSAGKVAISAKEIKEDNIGAQVLGLFTLSTGQDSWNQTN	14

Could you now look at the following protein, please?
Request: Quick one: Enzyme Activity Endpoint Assay: IgG for PRT-589 (protein) MRNQTTTYSEVTPSHITSVWTKGVTPPEQFIQGEDVFHAPYIANQGWYDITKTFNGKDDLLCGAATAGNMLHWWFDQNKEQIENYLKKHPEKQKINFNNEEMFDVREAINTKDSQTDSALFSYFKDKAFPYLSAKHLGVFPDHVIDMFINGYRLSLTNHDKTDVNRGTKDPRGGIFDAVFTRGDQSKLLTARHDFKNKTLKEISDLIKQELTEGKALGLSHTYANVRINHVINLWGADFDAEGNLEAIYVTDSDSNASIGMKKYYVGVNSAGKVAISAKKIEGDNIGAQVLGLFTLSTGQDIWQQTNLEHHHHHH ?
Result: 0
